B1: SLC2A12 (parent)
chain: CLLGLGSLVLILSLSYTVLIVGRI

variants of: B1; experiment: protein stability index of a GFP-peptide fusion (GPS, HEK-293T) (PSI 1-6); higher = more stable; settings: c terminus: a fixed tail appended;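 also: lentivirally expressed fusions sorted by FACS into six bins by GFP to DsRed ratio, PSI derived from sequencing read proportions per bin multiplied by bin number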
Quick rule for you: protein stability index at 3 or higher means yes (1), lower means no (0).

API: above_or_equal(metric=protein stability index, cutoff=3) for item S7P
no (0)

Hello, I need to know if L3R has measured protein stability index not below 3. Thanks!
no (0)

Test whether the variant I24F records protein stability index of 3 or higher.
no (0)

Has R23I a recorded protein stability index greater than or equal to 3?
no (0)

Is protein stability index at least 3? Consider V18M
yes (1)

I'd appreciate it if you could say whether G6E has protein stability index at least equal to 3.
yes (1)

# bool: protein stability index of L5I >= 3
yes (1)

Given S7H , state whether its protein stability index is at least 3.
no (0)

State whether the measured protein stability index reaches 3, counting equality as reaching it, for S7R
no (0)

Determine whether this variant has protein stability index no lower than 3: G4L
yes (1)

Given the entry C1K , answer whether its protein stability index meets or surpasses 3.
no (0)

Is it the case that R23C has protein stability index reaching or exceeding 3?
yes (1)

Given the entry T17E , answer whether its protein stability index meets or surpasses 3.
yes (1)

Can L8D be said to have protein stability index at or above 3?
yes (1)

Quick check, protein stability index >= 3? V9D
yes (1)

Decide: protein stability index of L8P >= 3?
no (0)

Entry G6H : is its protein stability index no less than 3?
no (0)

Form field: protein stability index at least 3? Entry: L5W
no (0)

Check if protein stability index >= 3 (inclusive). Item: S15Q
no (0)

Please check the record R23L and state if its protein stability index is at or above 3.
no (0)

For this variant, is measured protein stability index 3 or higher? I20M
no (0)

Does protein stability index meet or surpass 3 for L5E ?
no (0)

Threshold query (protein stability index >= 3) on S13L
no (0)

Determine whether measured protein stability index meets or exceeds 3 for S13F
yes (1)

Record L14D ; criterion: protein stability index no lower than 3. Met?
no (0)

Can R23M be said to have protein stability index at or above 3?
no (0)

Given the entry V9S , answer whether its protein stability index meets or surpasses 3.
yes (1)

Kindly determine if protein stability index recorded for V21P is above or exactly 3.
yes (1)

Say whether L14E shows protein stability index of 3 or more.
no (0)

API: above_or_equal(metric=protein stability index, cutoff=3) for item V21I
yes (1)

Dear colleague, could you confirm whether R23K has protein stability index at or above 3?
yes (1)

Every entry's value here was drawn from the supplement of paper PMC10567573.
